Cited source for all entries: patent US11299488B2

# assayed.system: ROCK2 (Homo sapiens (Human), UniProt O75116)
# Sequence (O75116 whole entry, species assumed): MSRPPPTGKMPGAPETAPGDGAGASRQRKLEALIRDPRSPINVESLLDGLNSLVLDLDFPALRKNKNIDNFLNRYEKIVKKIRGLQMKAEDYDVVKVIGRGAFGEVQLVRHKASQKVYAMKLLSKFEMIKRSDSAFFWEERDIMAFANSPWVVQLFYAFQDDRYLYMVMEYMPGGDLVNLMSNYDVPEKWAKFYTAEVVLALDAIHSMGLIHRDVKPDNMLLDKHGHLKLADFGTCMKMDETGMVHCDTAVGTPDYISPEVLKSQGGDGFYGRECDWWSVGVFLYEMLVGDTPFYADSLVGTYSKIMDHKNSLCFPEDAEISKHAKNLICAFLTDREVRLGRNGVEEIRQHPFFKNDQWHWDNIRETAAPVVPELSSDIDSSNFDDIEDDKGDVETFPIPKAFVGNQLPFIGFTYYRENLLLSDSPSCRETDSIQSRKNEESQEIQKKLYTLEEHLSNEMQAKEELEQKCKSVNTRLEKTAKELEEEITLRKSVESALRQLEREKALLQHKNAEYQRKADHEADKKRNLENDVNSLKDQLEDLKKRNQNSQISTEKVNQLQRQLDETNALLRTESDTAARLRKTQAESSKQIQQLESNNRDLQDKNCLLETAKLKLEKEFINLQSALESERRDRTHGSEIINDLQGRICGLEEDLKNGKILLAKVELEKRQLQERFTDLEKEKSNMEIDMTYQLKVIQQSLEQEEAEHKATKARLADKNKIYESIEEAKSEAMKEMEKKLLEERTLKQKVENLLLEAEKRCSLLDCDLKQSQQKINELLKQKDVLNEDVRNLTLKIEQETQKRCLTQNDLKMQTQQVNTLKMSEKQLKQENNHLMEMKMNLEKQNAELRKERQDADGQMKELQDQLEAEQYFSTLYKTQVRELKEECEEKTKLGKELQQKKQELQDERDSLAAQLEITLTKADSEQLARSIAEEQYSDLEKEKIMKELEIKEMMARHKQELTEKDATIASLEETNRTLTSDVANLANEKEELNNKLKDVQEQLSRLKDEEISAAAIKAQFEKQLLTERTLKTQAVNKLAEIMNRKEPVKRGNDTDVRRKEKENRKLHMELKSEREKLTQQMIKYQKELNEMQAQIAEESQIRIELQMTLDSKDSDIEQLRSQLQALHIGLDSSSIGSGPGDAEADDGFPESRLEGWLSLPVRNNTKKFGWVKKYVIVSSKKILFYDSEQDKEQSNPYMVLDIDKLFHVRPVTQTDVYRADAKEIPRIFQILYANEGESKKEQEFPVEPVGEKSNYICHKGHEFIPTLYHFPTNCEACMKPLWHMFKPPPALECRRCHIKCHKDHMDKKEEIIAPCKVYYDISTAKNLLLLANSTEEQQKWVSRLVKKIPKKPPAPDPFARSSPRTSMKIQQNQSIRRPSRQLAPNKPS
pIC50: −log10 of the molar value.
readout.label: pIC50

# count of solved cases: 5
COc1ccc2ncnc(N[C@H]3C[C@]4(C3)C[C@H](Oc3ncccc3C(N)=O)C4)c2c1 (stereo partly shown): 7.21
[H][C@]1(Oc2ncccc2C(N)=O)C[C@]2(C[C@@H](Nc3nccc(-c4ccc(C(=O)N(C)C)cc4)n3)C2)C1 (stereo partly shown): 5.96
NC(=O)c1cccnc1O[C@H]1C[C@@]2(C[C@H](Nc3ncc4ccccc4n3)C2)C1 (stereo partly shown): 6.59
Cc1ccc2c(N[C@H]3C[C@]4(C3)C[C@H](Oc3ncccc3C(N)=O)C4)nccc2c1 (stereo partly shown): 7.33
[H][C@]1(Oc2ncccc2C(N)=O)C[C@]2(C[C@@H](Nc3nccc(-c4ccc(F)cc4)n3)C2)C1 (stereo partly shown): 6.68

(I) [H][C@]1(Oc2ncccc2C(N)=O)C[C@]2(C[C@@H](Nc3nccc(N4CCCC(F)C4)n3)C2)C1 (stereo partly shown)
(II) COc1ccc2c(N[C@H]3C[C@]4(C3)C[C@H](Oc3ncccc3C(N)=O)C4)nc(OC)cc2c1 (stereo partly shown)
QUERY: Param pair: I , II . Output: the one whose pIC50 is numerically greater. Please identify the chosen entry by its label.
RESULT: II

* * *

pIC50: −log10 of the molar value.
Hi! I'm sharing some pIC50 results obtained with ROCK2 (Homo sapiens (Human), UniProt O75116).
readout.label: pIC50

NC(=O)c1cccnc1O[C@H]1CC2(C[C@H](Nc3nc4cc(F)c(Br)cc4s3)C2)C1 (stereo partly shown) [Example 1]: 6.26

(I) [H][C@]1(Oc2ncccc2C(N)=O)C[C@]2(C[C@@H](Nc3nccc(NCC(C)(C)CO)n3)C2)C1 (stereo partly shown) [Example 45]
(II) [H][C@]1(Oc2ncccc2C(N)=O)C[C@]2(C[C@@H](Nc3nccc(N4CCC(F)CC4)n3)C2)C1 (stereo partly shown) [Example 40]
(III) NC(=O)c1cccnc1O[C@H]1C[C@@]2(C[C@H](Nc3nnc(-c4ccc(OC(F)(F)F)cc4)o3)C2)C1 (stereo partly shown) [Example 16]
QUERY: Ordering: ascending pIC50. In your reply, arrange the labels in the requested order.
RESULT: I, II, III
(I: 6.17, II: 6.42, III: 7.02)

* * *

# assayed.system: ROCK2 (Homo sapiens (Human), UniProt O75116)
readout.label: IC50 (nM)

(a) [H][C@]1(Oc2ncccc2C(N)=O)C[C@]2(C[C@@H](Nc3ccnc(N4CCC(F)(F)CC4)n3)C2)C1 (stereo partly shown)
(b) [H][C@]1(Oc2ncccc2C(N)=O)C[C@]2(C[C@@H](Nc3nccc(-c4cnn(C)c4)n3)C2)C1 (stereo partly shown)
(c) NC(=O)c1cccnc1O[C@H]1C[C@@]2(C[C@H](Nc3cnc4cc(F)ccc4n3)C2)C1 (stereo partly shown)
(d) NC(=O)c1cccnc1O[C@H]1C[C@@]2(C[C@H](Nc3nc4ccc(F)cc4s3)C2)C1 (stereo partly shown)
QUERY: Please give the order of these molecules when sorted by IC50, largest value leading. In your reply, arrange the labels in the requested order.
RESULT: b, a, d, c
(b: 874 nM, a: 334 nM, d: 156 nM, c: 73 nM)

* * *

Hi! I'm sharing some IC50 results obtained with ROCK2 (Homo sapiens (Human)).
readout.label: IC50 (nM)

# count of solved cases: 2
[H][C@]1(Oc2ncccc2C(N)=O)C[C@]2(C[C@@H](Nc3ccnc(N4CC(F)(F)C4)n3)C2)C1 (stereo partly shown) [Example 68]: 1300
[H][C@]1(Oc2ncccc2C(N)=O)C[C@]2(C[C@@H](Nc3ccnc(-c4cccc(F)c4)n3)C2)C1 (stereo partly shown) [Example 70]: 2240

(P) NC(=O)c1cccnc1O[C@H]1C[C@@]2(C[C@H](Nc3ncnc4ccc(F)cc34)C2)C1 (stereo partly shown) [Example 26]
(Q) [H][C@]1(Oc2ncccc2C(N)=O)C[C@]2(C[C@@H](Nc3nccc(N4CC(F)(F)C4)n3)C2)C1 (stereo partly shown) [Example 39]
QUERY: Param pair: P , Q . Output: the one whose IC50 is numerically greater. Please identify the chosen entry by its label.
RESULT: Q
(Q: 983 nM, P: 128 nM)
